# SYSTEM_NAME: human recombinant PDE5 (Homo sapiens, UniProt O76074)
# PROCEDURE_SUMMARY: cGMP-PDE one-step inhibition assay, human recombinant PDE5
# EXPERIMENTAL_SETUP: 0.15 μM 8-[H3]-cGMP, 30 min incubation
pIC50: −log10 of the molar value.
Returns one of YES or NO; YES when pIC50 is >= 8.

Task item: Given the entry O=C(CCCN1CC(=O)N2[C@H](c3ccc4c(c3)OCO4)c3[nH]c4ccccc4c3C[C@@H]2C1=O)NC1CCCCC1 , answer whether its pIC50 meets or surpasses 8.
Reply: YES

Task item: Next up: CNc1cc(CN2CC(=O)N3[C@H](c4ccc5c(c4)OCO5)c4[nH]c5ccccc5c4C[C@@H]3C2=O)cc([N+](=O)[O-])c1
Reply: NO

Task item: Next up: CN(C(=O)CN1CC(=O)N2[C@H](c3ccc4c(c3)OCO4)c3[nH]c4ccccc4c3C[C@@H]2C1=O)c1ccccc1
Reply: NO

Task item: Next up: O=C(CN1CC(=O)N2[C@H](c3ccc4c(c3)OCO4)c3[nH]c4ccccc4c3C[C@@H]2C1=O)Nc1ccccc1
Reply: YES

Task item: Next up: O=C(CN1CC(=O)N2[C@H](c3ccc4c(c3)OCO4)c3[nH]c4ccccc4c3C[C@@H]2C1=O)N1CCN(c2ccccc2)CC1
Reply: NO

Task item: Next up: NN1CC(=O)N2[C@H](c3ccc4c(c3)OCO4)c3[nH]c4ccccc4c3C[C@@H]2C1=O
Reply: YES
